# TESTED_ON: ScSte2 with protease ScBar1 (Saccharomyces cerevisiae, UniProt D6VTK4)
# Sequence (D6VTK4 whole entry): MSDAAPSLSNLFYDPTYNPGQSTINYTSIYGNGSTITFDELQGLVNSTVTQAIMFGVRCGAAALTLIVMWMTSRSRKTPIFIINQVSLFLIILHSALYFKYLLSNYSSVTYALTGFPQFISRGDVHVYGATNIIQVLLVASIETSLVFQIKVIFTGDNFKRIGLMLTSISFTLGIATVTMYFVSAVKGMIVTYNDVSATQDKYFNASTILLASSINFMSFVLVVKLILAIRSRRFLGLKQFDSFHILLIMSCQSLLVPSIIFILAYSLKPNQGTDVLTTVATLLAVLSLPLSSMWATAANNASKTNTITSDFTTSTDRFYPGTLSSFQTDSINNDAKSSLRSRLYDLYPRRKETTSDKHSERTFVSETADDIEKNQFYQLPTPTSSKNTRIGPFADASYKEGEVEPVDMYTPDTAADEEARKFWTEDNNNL
# Format: cell-based
No end group written: not given here.
Here the recorded LogEC50 is given for each entry.
MEASUREMENT_NAME: LogEC50 (M)

> print(dat)
             sequence.string  unit.descriptor  quantitative.result
 1   WAWLQLKPGQPMY [ScPep2A]                M                 −5.0
 2   WHWLALKPGQPMY [ScPep5A]                M                 −6.3
 3  WHWLQLKPGAPMY [ScPep10A]                M                 −5.2
 4  WHWLQLKPGQAMY [ScPep11A]                M                 −5.6
 5  WHWLQLKPGQPAY [ScPep12A]                M                 −6.0
 6   WHWLQLAPGQPMY [ScPep7A]                M                 −5.4
 7   WHWLQAKPGQPMY [ScPep6A]                M                 −5.5
 8   WHALQLKPGQPMY [ScPep3A]                M                 −4.6
 9   WHWLQLKPAQPMY [ScPep9A]                M                 −4.8
10  WHWLQLKPGQPMA [ScPep13A]                M                 −5.1
11   AHWLQLKPGQPMY [ScPep1A]                M                 −5.9
12   WHWAQLKPGQPMY [ScPep4A]                M                 −5.4
13   WHWLQLKAGQPMY [ScPep8A]                M                 −5.6

* * *

# Tested on: CaSte2 with protease CaBar1
# REPORTED_CONDITIONS: CaSte2 + CaBar1 (yBB02); Hill function best-fit ± standard error
No end group written: not given here.
MEASUREMENT_NAME: Hill Slope

> print(dat)
            sequence.string  quantitative.result
1        GFRLTNAGYFEPG [7A]                  2.2
2    GFRLTNFGYFEAA [12A13A]                  1.8
3   GFRATNFGYFEPG [CaPep4A]                  2.4
4   GFRLTAFGYFEPG [CaPep6A]                  1.7
5   GFRLTNFGAFEPG [CaPep9A]                  1.7
6  GFRLTNFGYAEPG [CaPep10A]                  2.6

* * *

# Test system: CaSte2
# REPORTED_CONDITIONS: CaSte2 (yTC384), no protease; Hill function best-fit ± standard error
No end group written: not given here.
# Hill Slope values compiled below
MEASUREMENT_NAME: Hill Slope

> print(dat)
               sequence.string  quantitative.result
 1      GFRLTNFGYFEAA [12A13A]                  2.8
 2     AFRLTNFGYFEPG [CaPep1A]                  3.0
 3     GFRATNFGYFEPG [CaPep4A]                  1.3
 4       GFRLTNFGAAEPG [9A10A]                 0.99
 5     GFRLTAFGYFEPG [CaPep6A]                  4.4
 6     GFRLTNFGAFEPG [CaPep9A]                  1.9
 7         GFRLTNFGYFEAG [12A]                 0.95
 8     GARLTNFGYFEPG [CaPep2A]                  1.4
 9     GFALTNFGYFEPG [CaPep3A]                  2.0
10     GFRLANFGYFEPG [CaPep5A]                  2.7
11  GARLTNFGYFEPA [CaPep2A13A]                  1.2
12    GFRLTNFGYAEPG [CaPep10A]                  2.8
13          GFRLTNAGYFEPG [7A]                  1.4
14     GFRLTNFAYFEPG [CaPep8A]                  1.3

All figures here come from patent US20240368664A1.
